assay: in vivo; conditions: mouse, sc
attribute measured: LD50

- molecule: "C=CC12CN(C)C3CC14C(=Nc1ccccc14)C1CC2C3CO1 (stereo not shown) [Koumine]"
  attribute measured: "LD50"
  recorded value: "99 mg/kg"
